Biological target: 5-hydroxytryptamine receptor 2A (Homo sapiens, UniProt P28223)
Sequence (P28223 whole entry): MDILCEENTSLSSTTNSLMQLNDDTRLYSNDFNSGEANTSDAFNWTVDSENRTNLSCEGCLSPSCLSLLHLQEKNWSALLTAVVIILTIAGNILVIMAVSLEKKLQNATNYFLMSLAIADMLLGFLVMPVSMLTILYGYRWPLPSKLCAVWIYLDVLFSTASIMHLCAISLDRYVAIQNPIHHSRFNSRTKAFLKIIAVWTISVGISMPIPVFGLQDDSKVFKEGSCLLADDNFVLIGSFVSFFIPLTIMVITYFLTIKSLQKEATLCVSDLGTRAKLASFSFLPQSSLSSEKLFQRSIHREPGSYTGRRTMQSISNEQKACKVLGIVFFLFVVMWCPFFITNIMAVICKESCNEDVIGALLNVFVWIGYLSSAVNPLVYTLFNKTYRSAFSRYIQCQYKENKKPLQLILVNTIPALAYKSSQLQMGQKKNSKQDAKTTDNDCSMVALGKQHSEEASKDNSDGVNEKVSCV
Test: Inhibition of [3H]Ketanserin binding to 5-HT2A receptor (unknown origin) expressed in HEK293 cells at 10 uM by liquid scintillation counter relative to control
Type: cell-based
metric-name: inhibition (%)

compound | system-name | metric-name | assay-result
COc1cc2c(cc1O)CCN1Cc3c(ccc(O)c3OC)C[C@@H]21 | 5-hydroxytryptamine receptor 2A (Homo sapiens, UniProt P28223) | inhibition | 84
COc1ccc2c(c1OC)CN1CCc3cc4c(cc3[C@H]1C2)OCO4 | 5-hydroxytryptamine receptor 2A (Homo sapiens, UniProt P28223) | inhibition | 18.3
COc1cc2c(cc1O)[C@H]1Cc3ccc(OC)c(OC)c3CN1CC2 | 5-hydroxytryptamine receptor 2A (Homo sapiens, UniProt P28223) | inhibition | 40.6
COc1cc2c(cc1OC)[C@@H]1Cc3ccc(OC)c(O)c3CN1CC2 [TETRAHYDROPALMATRUBINE] | 5-hydroxytryptamine receptor 2A (Homo sapiens, UniProt P28223) | inhibition | 20
COc1c(O)ccc2c1CN1CCc3cc4c(cc3[C@@H]1C2)OCC4 | 5-hydroxytryptamine receptor 2A (Homo sapiens, UniProt P28223) | inhibition | 91.7
COc1c(O)ccc2c1CN1CCc3cc4c(cc3[C@@H]1C2)OCCO4 | 5-hydroxytryptamine receptor 2A (Homo sapiens, UniProt P28223) | inhibition | 97.3
COc1cc2c(cc1OC)[C@@H]1Cc3ccc(O)c(OC)c3CN1CC2 | 5-hydroxytryptamine receptor 2A (Homo sapiens, UniProt P28223) | inhibition | 68.8
COc1cc2c(cc1O)CCN1Cc3c(ccc(OC)c3O)C[C@@H]21 | 5-hydroxytryptamine receptor 2A (Homo sapiens, UniProt P28223) | inhibition | 59.1
COc1cc2c(cc1O)[C@H]1Cc3ccc(O)c(OC)c3CN1CC2 | 5-hydroxytryptamine receptor 2A (Homo sapiens, UniProt P28223) | inhibition | 16.4
COc1c(O)ccc2c1CN1CCc3cc4c(cc3[C@@H]1C2)OCO4 | 5-hydroxytryptamine receptor 2A (Homo sapiens, UniProt P28223) | inhibition | 73.6
